Target: T1, La-WT (La autoantigen, LARP3) (human, UniProt P05455 1-408)
T1 sequence: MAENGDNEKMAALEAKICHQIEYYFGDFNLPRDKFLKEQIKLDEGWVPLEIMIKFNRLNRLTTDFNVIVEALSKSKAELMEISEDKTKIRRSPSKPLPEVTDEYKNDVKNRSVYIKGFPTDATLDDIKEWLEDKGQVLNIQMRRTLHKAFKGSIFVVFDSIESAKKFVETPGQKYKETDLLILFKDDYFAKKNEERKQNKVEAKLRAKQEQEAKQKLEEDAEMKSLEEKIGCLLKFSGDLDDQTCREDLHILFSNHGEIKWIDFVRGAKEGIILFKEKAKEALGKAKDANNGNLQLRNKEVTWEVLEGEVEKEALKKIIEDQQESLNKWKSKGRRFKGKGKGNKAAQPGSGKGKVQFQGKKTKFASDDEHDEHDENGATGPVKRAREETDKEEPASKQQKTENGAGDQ
Assay: EMSA; EMSA: about 20 mM Tris-HCl pH 7.4, 150 mM NaCl, 3 mM MgCl2, 0.5 mM EDTA, IGEPAL, glycerol, 50 nM RNA, RT 10 min (with compounds: 18 mM Tris, 135 mM NaCl, 2.7 mM MgCl2, 0.45 mM EDTA, 0.025% IGEPAL, 2% glycerol, 10% DMSO); FP: 20 mM Tris-HCl pH 7.5, 3 mM MgCl2, 0.5 mM EDTA, 150 mM NaCl, 0.05% IGEPAL, 100 ug/ml BGG, RT 15 min
Conditions: protein: recombinant; tags: His; hairpin (mfold prediction)
pKd: −log10 of the molar value.
Measured parameter: pKd

[
  {
    "Binder": "GCUGCCCAGGAAGAGCCCCAGCCAUGGAACACCAGCUCCUGUGCUGC (structured_RNA) [fD1]",
    "Assay value": 7.07
  }
]
